All values here come from patent US20130216547A1.

# target_or_system: T1, human big-endothelin-1 (big-ET-1) (human)
# T1 construct: 38 amino acid peptide; also called human big-ET-1; hBig-ET-1
# T1 peptide: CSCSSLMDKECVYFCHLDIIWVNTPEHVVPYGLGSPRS
# test_name: SPR (Biacore T200), 37 C, mAb capture, peptide analyte
# Description: Measurements were conducted on a T200 Biacore instrument (Biacore Life Sciences division of GE Healthcare, Piscataway, N.J.). […] Peptide binding was monitored for 3 min while dissociation of mAb-bound peptide was monitored for 4 min in HBST running buffer (0.01 M HEPES pH 7.4, 0.15 M NaCl, 3 mM EDTA, 0.005% v/v Surfactant P20). […]
Measured pKd, listed per entry for reference.
Please report pKd as the negative decimal logarithm of the molar concentration, giving only the number.

Example cases with answers are listed next.
* H4H6345P (antibody, V domains shown, Human IgG4 Fc (prefix H4H)) VH: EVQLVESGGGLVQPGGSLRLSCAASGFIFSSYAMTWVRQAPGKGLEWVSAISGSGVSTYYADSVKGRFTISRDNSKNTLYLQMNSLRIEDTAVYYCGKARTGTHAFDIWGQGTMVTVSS VL: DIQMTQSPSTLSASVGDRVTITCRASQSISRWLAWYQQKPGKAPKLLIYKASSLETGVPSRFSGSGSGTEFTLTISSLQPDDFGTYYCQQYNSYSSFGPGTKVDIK | 7.06
* H2M6490N (antibody, V domains shown, Hybridoma antibody, human variable domains, mouse IgG2 Fc (prefix H2M)) VH: EVQLLESGGGLVQPGGSLRLSCAASGFTFSSYAMTWVRQAPGKGLECISAISGSGYSTYYADSMKGRFSISRDNSKNTLYLQMNRLRAEDTAVYYCTKGGRILEWLLPFDFWGQGTLVTVSS VL: DVVMTQSPLSLPVTLGQPASISCRSSQSLVYSDGNTYLIWFQQRPGQSPRRLIYKVSNRDSGVPDRFSGSGSGTDFTLIISRVEAEDVGLYYCMQGTHWPPTFGGGTKVEIK | 7.72

Now consider a different binder.
input: Look up pKd for this binder: H1M6492N (antibody, V domains shown, Hybridoma antibody, human variable domains, mouse constant domains; prefix H1M marks the Fc region (isotype not spelled out)) VH: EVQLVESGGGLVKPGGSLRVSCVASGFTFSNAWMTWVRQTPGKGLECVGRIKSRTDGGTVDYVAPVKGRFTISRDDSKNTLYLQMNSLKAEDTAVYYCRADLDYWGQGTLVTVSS VL: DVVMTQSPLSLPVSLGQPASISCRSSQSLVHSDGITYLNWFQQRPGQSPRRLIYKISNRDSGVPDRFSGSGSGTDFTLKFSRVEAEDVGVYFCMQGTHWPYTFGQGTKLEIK
output: 8.19
